# System: VACV
# measurement notes: microbe, parasite or virus in culture
# Type: cell-based
# experimental conditions: Orthopoxvirus vaccinia, Vero C1008, 24 h

{"molecular string": "NC(=O)c1cn([C@@H]2O[C@H](CO)[C@@H](O)[C@H]2O)c2ncnc(N)c12", "IC50": "20 nM"}

* * *

# measurement notes: in vitro
# experimental conditions: human
measurement label: CC50

{"molecular string": "NC(=O)c1cn([C@@H]2O[C@H](CO)[C@@H](O)[C@H]2O)c2ncnc(N)c12", "value reported": "> 600 nM"}
